Value source: patent US9539260B2

pIC50 listing for selected molecules.
Target: PI3K alpha (Homo sapiens (Human), UniProt P42336)
Sequence (P42336 other isoform, or with tags, fused parts or gaps): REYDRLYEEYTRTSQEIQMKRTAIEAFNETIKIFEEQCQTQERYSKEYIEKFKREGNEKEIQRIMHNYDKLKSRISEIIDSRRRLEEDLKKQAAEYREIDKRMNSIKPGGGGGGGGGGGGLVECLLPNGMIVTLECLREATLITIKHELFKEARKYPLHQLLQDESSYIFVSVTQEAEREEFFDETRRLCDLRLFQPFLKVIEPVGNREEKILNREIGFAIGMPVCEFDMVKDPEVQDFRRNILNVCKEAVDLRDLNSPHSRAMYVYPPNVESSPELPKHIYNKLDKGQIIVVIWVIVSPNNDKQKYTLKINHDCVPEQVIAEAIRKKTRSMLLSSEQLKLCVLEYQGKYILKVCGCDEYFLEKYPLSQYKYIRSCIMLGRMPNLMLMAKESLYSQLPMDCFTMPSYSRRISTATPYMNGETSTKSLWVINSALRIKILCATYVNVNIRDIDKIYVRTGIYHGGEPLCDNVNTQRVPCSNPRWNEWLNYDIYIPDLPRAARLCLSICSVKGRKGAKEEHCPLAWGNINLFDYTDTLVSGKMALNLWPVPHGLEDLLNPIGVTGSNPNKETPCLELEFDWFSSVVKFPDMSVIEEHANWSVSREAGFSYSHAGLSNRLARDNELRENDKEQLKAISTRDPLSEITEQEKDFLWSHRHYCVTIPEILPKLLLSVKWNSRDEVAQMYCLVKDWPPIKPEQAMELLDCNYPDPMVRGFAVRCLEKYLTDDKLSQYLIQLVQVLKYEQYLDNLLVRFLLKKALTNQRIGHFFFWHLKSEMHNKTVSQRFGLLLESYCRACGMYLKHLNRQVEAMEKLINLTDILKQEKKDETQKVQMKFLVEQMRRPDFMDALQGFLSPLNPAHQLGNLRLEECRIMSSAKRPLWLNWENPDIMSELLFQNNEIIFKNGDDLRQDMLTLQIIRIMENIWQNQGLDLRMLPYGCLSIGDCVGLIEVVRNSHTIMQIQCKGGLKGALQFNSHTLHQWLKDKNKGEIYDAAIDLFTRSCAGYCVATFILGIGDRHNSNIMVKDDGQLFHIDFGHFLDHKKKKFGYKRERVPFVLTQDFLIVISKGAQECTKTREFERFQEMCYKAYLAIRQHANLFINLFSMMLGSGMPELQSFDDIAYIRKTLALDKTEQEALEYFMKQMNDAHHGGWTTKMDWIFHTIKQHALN
Test: Enzymatic PI3K alpha isoform inhibition (lipid kinase activity, Kinase-Glo luminescence)
Conditions: Enzymatic assay
pIC50: −log10 of the molar value.
Recorded Endpoint: pIC50

> print(dat)
                                   molecule                       experimental.target  recorded.endpoint  measurement
1  COc1ncc(N2CCOc3ccc(O[C@H]4CCN(C(=O)C5CCN(C(C)=O)CC5)C4)cc32)cc1C  PI3K alpha (Homo sapiens (Human), UniProt P42336)              pIC50         5.84
2  COc1ncc(N2CCOc3cnc(OC4CCN(C(=O)C5CCS(=O)(=O)CC5)C4)cc32)cc1C (stereo not shown)  PI3K alpha (Homo sapiens (Human), UniProt P42336)              pIC50         6.36
3  CS(=O)(=O)c1ncc(N2CCOc3ccc(O[C@H]4CCN(C(=O)C5CCOCC5)C4)cc32)cc1Cl  PI3K alpha (Homo sapiens (Human), UniProt P42336)              pIC50         6.18
4  COc1ncc(N2CCOc3ccc(O[C@H]4CCN(C(=O)c5ccncc5)C4)cc32)cc1C#N  PI3K alpha (Homo sapiens (Human), UniProt P42336)              pIC50         6.45

###

IC50 listing for selected compounds.
Biological target: PI3K alpha (Homo sapiens (Human), UniProt P42336)
Assay: Enzymatic PI3K alpha isoform inhibition (lipid kinase activity, Kinase-Glo luminescence)
Settings: Enzymatic assay
Recorded Endpoint: IC50 (nM)

> print(dat)
                                   compound  measurement
1  COc1ncc(N2CCOc3ccc(O[C@H]4CCN(C(=O)N5CCOCC5)C4)cc32)cc1C#N          273
2  COc1ncc(N2CCOc3ccc(O[C@H]4CCN(C(=O)C5CCOC5)C4)cc32)cc1C#N (single isomer, unassigned) [Example D28]          411
3  COc1ncc(N2CCOc3cnc(O[C@H]4CCN(C(=O)C5CCOCC5)C4)cc32)cc1C          494
4  CCC(=O)N1CC[C@H](Oc2ccc3c(c2)N(c2ccc(OC)c(S(=O)(=O)N(C)OC)c2)CCO3)C1         2730

###

Molecular target: PI3K alpha (Homo sapiens (Human), UniProt P42336)
Assay: Enzymatic PI3K alpha isoform inhibition (lipid kinase activity, Kinase-Glo luminescence)
Details: Enzymatic assay
Procedure: 1.1 Test of Lipid Kinase Activity […] In a more preferred assay, the kinase reaction is performed in a final volume of 10 μl per well of a low volume non-binding CORNING, 384 well black plate (Cat. No. #3676). […] IC50 is determined by a four parameter curve fitting routine that comes along with “excel fit”. […] Alternatively, IC50 values are calculated using idbsXLfit model 204, which is a 4 parameter logistic model. […]
pIC50: −log10 of the molar value.
pIC50 listing for selected compounds.
Recorded Endpoint: pIC50

> print(dat)
                                   compound  measurement
1  CCC(=O)N1CC[C@H](Oc2ccc3c(c2)N(c2cnc(S(C)(=O)=O)c(C)c2)CCO3)C1         6.32
2  COc1ncc(N2CCOc3ccc(O[C@H]4CCN(C(=O)CN(C)C)C4)cc32)cc1C#N         6.19
3  Cc1cc(N2CCOc3ccc(O[C@H]4CCN(C(=O)C5CCOC5)C4)cc32)cnc1S(C)(=O)=O (some centres unmarked) [Example B53]         6.46
4  COc1ncc(N2CCOc3ccc(O[C@H]4CCN(C(=O)c5cn(C)cn5)C4)cc32)cc1C         6.88
5  CCC(=O)N1CC[C@H](Oc2ccc3c(c2)N(c2cnc(OC)c(C#N)c2)CCO3)C1         6.39
6  COc1ncc(N2CCOc3ccc(O[C@H]4CCN(C(=O)C5CNC(=O)C5)C4)cc32)cc1C#N (some centres unmarked)         6.31
7  COc1cc(N2CCOc3ccc(O[C@H]4CCN(C(=O)C5CCOCC5)C4)cc32)cnc1Cl         6.12
8  COCC(=O)N1CC[C@H](Oc2cc3c(cn2)OCCN3c2cnc(S(C)(=O)=O)c(C(F)F)c2)C1         7.11

###

IC50 listing for selected molecules.
Molecular target: PI3K delta (Homo sapiens (Human), UniProt O00329)
Sequence (O00329 other isoform, or with tags, fused parts or gaps linker GGGGGG): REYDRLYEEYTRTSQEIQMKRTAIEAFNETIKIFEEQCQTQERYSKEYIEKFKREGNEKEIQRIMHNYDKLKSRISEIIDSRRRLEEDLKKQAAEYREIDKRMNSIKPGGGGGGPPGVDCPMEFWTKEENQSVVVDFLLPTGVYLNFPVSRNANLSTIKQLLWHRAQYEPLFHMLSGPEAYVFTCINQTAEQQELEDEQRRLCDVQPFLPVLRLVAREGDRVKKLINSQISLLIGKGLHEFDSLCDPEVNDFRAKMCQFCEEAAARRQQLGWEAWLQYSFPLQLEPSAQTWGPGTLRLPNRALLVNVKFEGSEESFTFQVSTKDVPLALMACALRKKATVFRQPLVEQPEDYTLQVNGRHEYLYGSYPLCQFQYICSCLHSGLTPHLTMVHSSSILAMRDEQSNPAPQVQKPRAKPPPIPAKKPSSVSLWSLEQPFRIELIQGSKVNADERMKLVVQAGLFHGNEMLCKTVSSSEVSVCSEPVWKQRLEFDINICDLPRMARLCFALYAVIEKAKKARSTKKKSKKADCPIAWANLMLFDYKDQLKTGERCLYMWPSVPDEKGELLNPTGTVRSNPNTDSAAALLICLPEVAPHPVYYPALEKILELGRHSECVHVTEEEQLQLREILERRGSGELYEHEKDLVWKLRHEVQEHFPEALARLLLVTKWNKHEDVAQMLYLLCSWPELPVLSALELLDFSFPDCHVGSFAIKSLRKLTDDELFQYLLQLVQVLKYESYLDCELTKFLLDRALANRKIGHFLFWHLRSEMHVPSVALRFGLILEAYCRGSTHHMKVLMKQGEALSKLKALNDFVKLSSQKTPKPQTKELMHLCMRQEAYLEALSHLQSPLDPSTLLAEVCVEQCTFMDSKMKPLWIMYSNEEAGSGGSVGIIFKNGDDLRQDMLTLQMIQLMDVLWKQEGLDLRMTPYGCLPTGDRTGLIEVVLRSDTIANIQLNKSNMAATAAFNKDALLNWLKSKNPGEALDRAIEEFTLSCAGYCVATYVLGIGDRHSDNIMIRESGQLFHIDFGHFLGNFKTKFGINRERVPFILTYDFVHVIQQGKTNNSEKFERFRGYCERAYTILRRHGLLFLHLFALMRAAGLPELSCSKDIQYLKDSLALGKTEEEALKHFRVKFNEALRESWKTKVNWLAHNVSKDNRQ
Assay: Enzymatic PI3K delta isoform inhibition (lipid kinase activity, Kinase-Glo luminescence)
Conditions: Enzymatic assay
Description: 1.1 Test of Lipid Kinase Activity […] In a more preferred assay, the kinase reaction is performed in a final volume of 10 μl per well of a low volume non-binding CORNING, 384 well black plate (Cat. No. #3676). […] IC50 is determined by a four parameter curve fitting routine that comes along with “excel fit”. […] Alternatively, IC50 values are calculated using idbsXLfit model 204, which is a 4 parameter logistic model. […]
Recorded Endpoint: IC50 (nM)

> print(dat)
                                   molecule                       experimental.target  measurement
1  COc1ncc(N2CCOc3ccc(O[C@H]4CCN(C(=O)C5CCS(=O)(=O)C5)C4)cc32)cc1Cl (stereo partly shown) [Example B105]  PI3K delta (Homo sapiens (Human), UniProt O00329)           20
2  COc1cc(N2CCOc3ccc(O[C@H]4CCN(C(=O)C5COCCO5)C4)cc32)cnc1OC (single isomer, unassigned) [Example H5]  PI3K delta (Homo sapiens (Human), UniProt O00329)           11
3  COc1ncc(N2CCOc3ccc(O[C@H]4CCN(C(=O)C5CCN(C(C)=O)CC5)C4)cc32)cc1C  PI3K delta (Homo sapiens (Human), UniProt O00329)           11
4  COc1ncc(N2CCOc3ccc(O[C@H]4CCN(C(=O)C5COCCO5)C4)cc32)cc1C#N (stereo partly shown) [Example C25]  PI3K delta (Homo sapiens (Human), UniProt O00329)         12.5
5  Cc1cc(N2CCOc3ccc(O[C@H]4CCN(C(=O)C5CCOCC5)C4)c(C)c32)cnc1S(C)(=O)=O  PI3K delta (Homo sapiens (Human), UniProt O00329)           56
6  COc1ncc(N2CCOc3cnc(O[C@H]4CCN(C(=O)c5ncn(C)c5N)C4)cc32)cc1C(F)(F)F  PI3K delta (Homo sapiens (Human), UniProt O00329)           56
7  COc1ncc(N2CCOc3ccc(O[C@H]4CCN(C(=O)[C@@H]5CCN(C)C5)C4)cc32)cc1C#N  PI3K delta (Homo sapiens (Human), UniProt O00329)           13

###

Target: PI3K delta (Homo sapiens (Human), UniProt O00329)
Assay: Enzymatic PI3K delta isoform inhibition (lipid kinase activity, Kinase-Glo luminescence)
Conditions: Enzymatic assay
pIC50: −log10 of the molar value.
pIC50 listing for selected compounds.
Recorded Endpoint: pIC50

> print(dat)
                                   compound                       experimental.target  measurement
1  COc1ncc(N2CCOc3cnc(O[C@H]4CCN(C(=O)c5cn(C)cn5)C4)cc32)cc1F  PI3K delta (Homo sapiens (Human), UniProt O00329)         8.22
2  [2H]C1([2H])COc2ccc(O[C@H]3CCN(C(=O)C4CCOCC4)C3)cc2N1c1cnc(OC)c(C)c1 (single isomer, unassigned)  PI3K delta (Homo sapiens (Human), UniProt O00329)         7.85
3  COc1ncc(N2CCOc3ccc(O[C@H]4CCN(C(=O)c5cncn5C)C4)cc32)cc1C  PI3K delta (Homo sapiens (Human), UniProt O00329)         8.10
4  Cc1cc(N2CCOc3ccc(O[C@H]4CCN(C(=O)C5CCS(=O)(=O)CC5)C4)cc32)cnc1Cl  PI3K delta (Homo sapiens (Human), UniProt O00329)         7.96

###

pIC50 listing for selected compounds.
Target: PI3K delta (Homo sapiens (Human))
Assay: Enzymatic PI3K delta isoform inhibition (lipid kinase activity, Kinase-Glo luminescence)
Conditions: Enzymatic assay
Procedure: 1.1 Test of Lipid Kinase Activity […] In a more preferred assay, the kinase reaction is performed in a final volume of 10 μl per well of a low volume non-binding CORNING, 384 well black plate (Cat. No. #3676). […] IC50 is determined by a four parameter curve fitting routine that comes along with “excel fit”. […] Alternatively, IC50 values are calculated using idbsXLfit model 204, which is a 4 parameter logistic model. […]
pIC50: −log10 of the molar value.
Recorded Endpoint: pIC50

> print(dat)
                                   compound  recorded.endpoint  measurement
1  COc1ncc(N2CCOc3ccc(O[C@H]4CCN(C(=O)c5cnco5)C4)cc32)cc1F              pIC50         7.34
2  COc1ncc(N2CCOc3cnc(O[C@H]4CCN(C(=O)C5CCS(=O)(=O)CC5)C4)cc32)cc1F              pIC50         8.30
3  CS(=O)(=O)c1ncc(N2CCOc3ccc(O[C@H]4CCN(C(=O)[C@@H]5CCOC5)C4)cc32)cc1C(F)F              pIC50         7.96
4  COc1ncc(N2CCOc3ccc(O[C@H]4CCN(C(=O)[C@@H]5CCNC5)C4)cc32)cc1C#N              pIC50         7.60
5  Cc1cc(N2CCOc3ccc(O[C@H]4CCN(S(=O)(=O)C(C)C)C4)cc32)cnc1S(C)(=O)=O              pIC50         7.18
6  COc1ncc(N2CCOc3cnc(O[C@H]4CCN(C(=O)C5CCS(=O)(=O)CC5)C4)cc32)cc1C#N              pIC50         7.62
7  COc1ncc(N2CCOc3ccc(O[C@H]4CCN(C(=O)C5CCC(=O)N5)C4)cc32)cc1C#N (stereo partly shown)              pIC50         7.49
